Endpoint summary: IC50, system: Receptor-type tyrosine-protein kinase FLT3 (Homo sapiens, UniProt P36888), multiple sources combined.

Compound: COc1cc2cc(c1OCCN1CCCC1)COC/C=C/COCc1cccc(c1)-c1ccnc(n1)N2
IC50: ≤ 1 µM

Compound: COC[C@H](C)Nc1ncc2c(-c3cnn(C4COC4)c3)cc([C@H]3CC[C@@](C)(O)CC3)n2n1 (single isomer, unassigned)
IC50: 0.1 to 1 µM

Compound: O=c1c2cc(F)ccc2sc2c(NCCN3CCOCC3)nc3ccccc3c12
IC50: > 1 µM

Compound: CCc1nc2c(N)ncc(-c3cnn(-c4cnc(C#N)nc4)c3)c2nc1N[C@@H]1CC[C@H](O)C1
IC50: ≤ 0.01 µM

====

Here is a set of molecules with reported IC50 for UniProt:P36888, compiled from the literature.

Molecule: Cc1[nH]c(/C=C2\C(=O)Nc3cc(NC(=O)NC(=O)c4ccc([N+](=O)[O-])cc4)ccc32)c(C)c1C(=O)O
Target or test system: UniProt:P36888
IC50: > 1 µM

Molecule: O=C(c1cc[nH]n1)N1CCC[C@H]1c1nc(Nc2cc(C3CC3)[nH]n2)c2cccn2n1
Target or test system: UniProt:P36888
IC50: 0.004 µM

Molecule: O=c1c2cc(F)ccc2sc2c(NCCCN3CCCC3)nc3ccccc3c12
Target or test system: UniProt:P36888
IC50: > 1 µM

Molecule: COCC(C)Nc1ncc2c(-c3cnn(CC4CCCO4)c3)cc(C3CCC(O)CC3)n2n1 (stereo not shown)
Target or test system: UniProt:P36888
IC50: 0.1 to 1 µM

Molecule: Cc1cnc(Nc2ccc(N3CCC(N(C)C)CC3)c(F)c2)nc1-c1cnn(C(C)C)c1
Target or test system: UniProt:P36888
IC50: 0.009 µM

Molecule: COC[C@H](C)Nc1ncc2c(-c3ccc(C(=O)N4CCOCC4)cc3)cc([C@H]3CC[C@H](O)CC3)n2n1
Target or test system: UniProt:P36888
IC50: 0.1 to 1 µM

Molecule: COC[C@H](C)Nc1ncc2c(-c3cnn(C(C)(C)C(=O)N4Cc5nc(C)sc5C4)c3)cc([C@H]3CC[C@H](O)CC3)n2n1
Target or test system: UniProt:P36888
IC50: 1 to 10 µM

====

pIC50: −log10 of the molar value.
pIC50 values for Receptor-type tyrosine-protein kinase FLT3 (Homo sapiens, UniProt P36888) compiled from several publications are listed below.

Compound: Cc1[nH]c(/C=C2\C(=O)Nc3cc(NC(=O)NC(=O)c4ccc(Cl)c(Cl)c4)ccc32)c(C)c1C(=O)O
Target or test system: Receptor-type tyrosine-protein kinase FLT3 (Homo sapiens, UniProt P36888)
pIC50: 7.27

Compound: CCc1nc2c(N)ncc(-c3cnn(C4CCN(c5ccncn5)CC4)c3)c2nc1N[C@@H]1CC[C@H](O)C1
Target or test system: Receptor-type tyrosine-protein kinase FLT3 (Homo sapiens, UniProt P36888)
pIC50: ≥ 8.00

Compound: Cc1cc2cnc(NC(=O)c3ccc(-c4cn[nH]c4)cn3)cc2[nH]1
Target or test system: Receptor-type tyrosine-protein kinase FLT3 (Homo sapiens, UniProt P36888)
pIC50: 8.15

Compound: CC[C@]1(O)CC[C@H](c2cc(-c3ccnc(N4CCOCC4)c3)c3cnc(N[C@@H](C)COC)nn32)CC1
Target or test system: Receptor-type tyrosine-protein kinase FLT3 (Homo sapiens, UniProt P36888)
pIC50: 6.00 to 7.00

Compound: CCc1nc2c(N)ncc(-c3cnn(C)c3)c2nc1NC1CCOCC1
Target or test system: Receptor-type tyrosine-protein kinase FLT3 (Homo sapiens, UniProt P36888)
pIC50: 7.00 to 8.00

Compound: COC[C@H](C)Nc1ncc2c(-c3cnn(C(C)(C)C(=O)N4CCOCC4)c3)cc(C3CCc4[nH]ncc4C3)n2n1 (stereo partly shown)
Target or test system: Receptor-type tyrosine-protein kinase FLT3 (Homo sapiens, UniProt P36888)
pIC50: 6.00 to 7.00

Compound: COC[C@H](C)Nc1ncc2c(C#CC(C)(C)C(=O)N3CCOCC3)cc([C@H]3CC[C@H](O)CC3)n2n1
Target or test system: Receptor-type tyrosine-protein kinase FLT3 (Homo sapiens, UniProt P36888)
pIC50: 5.00 to 6.00

Compound: CN1CCN(c2ccc3nc(-c4c(N[C@H]5CCC[C@@H]5O)c5sccc5[nH]c4=O)[nH]c3c2)CC1
Target or test system: Receptor-type tyrosine-protein kinase FLT3 (Homo sapiens, UniProt P36888)
pIC50: ≥ 7.30

Compound: CCc1nc2c(N)ncc(-c3ccc(N4CCC(N5CC[C@@H](NC)C5)CC4)c(OC)c3)c2nc1NC1CCOCC1
Target or test system: Receptor-type tyrosine-protein kinase FLT3 (Homo sapiens, UniProt P36888)
pIC50: ≥ 8.00

Compound: COc1ccccc1-c1n[nH]c2c1Cc1sccc1-2
Target or test system: Receptor-type tyrosine-protein kinase FLT3 (Homo sapiens, UniProt P36888)
pIC50: > 7.00

Compound: O=C1Nc2cc(NC(=O)c3cccn(-c4ccccc4F)c3=O)ccc2/C1=C/c1ccc[nH]1
Target or test system: Receptor-type tyrosine-protein kinase FLT3 (Homo sapiens, UniProt P36888)
pIC50: 6.27

Compound: CCc1nc2c(N)ncc(-c3cnn(-c4ccc(C)nc4)c3)c2nc1N[C@@H]1CC[C@H](O)C1
Target or test system: Receptor-type tyrosine-protein kinase FLT3 (Homo sapiens, UniProt P36888)
pIC50: ≥ 8.00

Compound: Cc1c2c(nn1C)C(=O)N(C)CCOc1c(cnn1C)-c1ccc3[nH]nc(c3c1)/C=C/2
Target or test system: Receptor-type tyrosine-protein kinase FLT3 (Homo sapiens, UniProt P36888)
pIC50: 9.46

Compound: CNc1cc(Oc2ccc(NC(=O)Nc3ccc(-c4cccnc4)c(C(F)(F)F)c3)cc2)ncn1
Target or test system: Receptor-type tyrosine-protein kinase FLT3 (Homo sapiens, UniProt P36888)
pIC50: 6.80

Compound: Clc1ccc2cc(Nc3cc(CN4CCCC4)ccn3)ncc2c1
Target or test system: Receptor-type tyrosine-protein kinase FLT3 (Homo sapiens, UniProt P36888)
pIC50: > 7.00

Compound: C[C@H](Nc1ncc2c(-c3ccc(CN4CCOCC4)cc3)cc([C@H]3CC[C@H](O)CC3)n2n1)[C@H]1CCCO1
Target or test system: Receptor-type tyrosine-protein kinase FLT3 (Homo sapiens, UniProt P36888)
pIC50: 5.00 to 6.00

Compound: CCC(=O)N1CCN(c2cc(-c3cc([C@H]4CC[C@H](O)CC4)n4nc(N[C@@H](C)COC)ncc34)ccn2)CC1
Target or test system: Receptor-type tyrosine-protein kinase FLT3 (Homo sapiens, UniProt P36888)
pIC50: 6.00 to 7.00

Compound: O=c1c2cc(F)ccc2sc2c(NCCCNCCO)nc3ccc(F)cc3c12
Target or test system: Receptor-type tyrosine-protein kinase FLT3 (Homo sapiens, UniProt P36888)
pIC50: < 6.00

Compound: CCCC(C)Nc1ncc2c(OC3CCNCC3)ncc([C@H]3CC[C@H](O)CC3)c2n1 (stereo partly shown)
Target or test system: Receptor-type tyrosine-protein kinase FLT3 (Homo sapiens, UniProt P36888)
pIC50: ≥ 7.00

Compound: CC(C)(C)c1cc(NC(=O)Nc2ccc(Oc3ncnc4[nH]ncc34)cc2)no1
Target or test system: Receptor-type tyrosine-protein kinase FLT3 (Homo sapiens, UniProt P36888)
pIC50: 8.10

Compound: Cc1[nH]c(/C=C2\C(=O)Nc3cc(NC(=O)c4cccn(-c5ccc(F)cc5)c4=O)ccc32)c(C)c1CCC(=O)O
Target or test system: Receptor-type tyrosine-protein kinase FLT3 (Homo sapiens, UniProt P36888)
pIC50: 8.46

Compound: CCc1nc2c(N)nccc2nc1NC1CCOCC1
Target or test system: Receptor-type tyrosine-protein kinase FLT3 (Homo sapiens, UniProt P36888)
pIC50: < 6.30

Compound: O=c1c2cc(F)ccc2sc2c(NCc3ccccc3)nc3ccc(F)cc3c12
Target or test system: Receptor-type tyrosine-protein kinase FLT3 (Homo sapiens, UniProt P36888)
pIC50: < 6.00

Compound: COC[C@H](C)Nc1ncc2c(O[C@H]3CC[C@H](O)CC3)ncc([C@H]3CC[C@H](O)CC3)c2n1
Target or test system: Receptor-type tyrosine-protein kinase FLT3 (Homo sapiens, UniProt P36888)
pIC50: 5.00 to 6.00

Compound: CC(C)(C)OC(=O)N1CCC(C(=O)N2CCC[C@@H]2c2nc(Nc3cc(C4CC4)[nH]n3)c3cccn3n2)CC1
Target or test system: Receptor-type tyrosine-protein kinase FLT3 (Homo sapiens, UniProt P36888)
pIC50: 6.51

Compound: COC[C@H](C)Nc1ncc2c(-c3cnn([C@@H]4CCN(C)C4=O)c3)cc([C@H]3CC[C@H](O)CC3)n2n1
Target or test system: Receptor-type tyrosine-protein kinase FLT3 (Homo sapiens, UniProt P36888)
pIC50: 5.00 to 6.00

Compound: O=[N+]([O-])c1ccc(-c2n[nH]c3c2Cc2sccc2-3)cc1
Target or test system: Receptor-type tyrosine-protein kinase FLT3 (Homo sapiens, UniProt P36888)
pIC50: 6.30 to 7.00

Compound: CC1CC(Nc2ncc3c(OC4CCNCC4)ncc([C@H]4CC[C@@H](O)CC4)c3n2)C1 (stereo partly shown)
Target or test system: Receptor-type tyrosine-protein kinase FLT3 (Homo sapiens, UniProt P36888)
pIC50: 6.00 to 7.00

Compound: COC[C@H](C)Nc1ncc2c([C@H]3CC[C@@H](C(=O)N4CCN(C)CC4)CC3)cc([C@H]3CC[C@H](O)CC3)n2n1
Target or test system: Receptor-type tyrosine-protein kinase FLT3 (Homo sapiens, UniProt P36888)
pIC50: 5.00 to 6.00

Compound: CCCC(C)Nc1ncc2c(O[C@H]3C[C@@H](O)C3)ncc([C@H]3CC[C@H](O)CC3)c2n1 (stereo partly shown)
Target or test system: Receptor-type tyrosine-protein kinase FLT3 (Homo sapiens, UniProt P36888)
pIC50: 6.00 to 7.00

Compound: O=C(Nc1ccc(-c2cc(-c3nc4ccccc4[nH]3)n[nH]2)cc1)Nc1ccc(Cl)c(C(F)(F)F)c1
Target or test system: Receptor-type tyrosine-protein kinase FLT3 (Homo sapiens, UniProt P36888)
pIC50: > 7.30
